# Tested on: OXA-160 (OXA-24/40 P227S)
# Type: biochemical, Acinetobacter baumannii
# conditions used: OXA-160; 50 mM NaH2PO4, 25 mM NaHCO3, pH 7.4, 25°C
measurement kind: Km (µM)
Provide only the numeric value, understood in µM.

Use these answered entries as a reference point.
- compound smiles: "CC1(C)S[C@@H]2[C@H](NC(=O)[C@H](N)c3ccccc3)C(=O)N2[C@H]1C(=O)O"
  assay system: "OXA-160 (OXA-24/40 P227S)"
  Km (µM): 13
- compound smiles: "CO/N=C(\\C(=O)N[C@@H]1C(=O)N2C(C(=O)O)=C(CSc3nc(=O)c(=O)[nH]n3C)CS[C@H]12)c1csc(N)n1"
  assay system: "OXA-160 (OXA-24/40 P227S)"
  Km (µM): 14

// query What reported Km corresponds to CO/N=C(\C(=O)N[C@@H]1C(=O)N2C(C(=O)O)=C(COC(C)=O)CS[C@H]12)c1csc(N)n1 on OXA-160 (OXA-24/40 P227S)?
// result 170
